# systemUnderTest: Protein-arginine deiminase type-4 (Homo sapiens) (UniProt Q9UM07)
# Sequence (Q9UM07 whole entry, looked up): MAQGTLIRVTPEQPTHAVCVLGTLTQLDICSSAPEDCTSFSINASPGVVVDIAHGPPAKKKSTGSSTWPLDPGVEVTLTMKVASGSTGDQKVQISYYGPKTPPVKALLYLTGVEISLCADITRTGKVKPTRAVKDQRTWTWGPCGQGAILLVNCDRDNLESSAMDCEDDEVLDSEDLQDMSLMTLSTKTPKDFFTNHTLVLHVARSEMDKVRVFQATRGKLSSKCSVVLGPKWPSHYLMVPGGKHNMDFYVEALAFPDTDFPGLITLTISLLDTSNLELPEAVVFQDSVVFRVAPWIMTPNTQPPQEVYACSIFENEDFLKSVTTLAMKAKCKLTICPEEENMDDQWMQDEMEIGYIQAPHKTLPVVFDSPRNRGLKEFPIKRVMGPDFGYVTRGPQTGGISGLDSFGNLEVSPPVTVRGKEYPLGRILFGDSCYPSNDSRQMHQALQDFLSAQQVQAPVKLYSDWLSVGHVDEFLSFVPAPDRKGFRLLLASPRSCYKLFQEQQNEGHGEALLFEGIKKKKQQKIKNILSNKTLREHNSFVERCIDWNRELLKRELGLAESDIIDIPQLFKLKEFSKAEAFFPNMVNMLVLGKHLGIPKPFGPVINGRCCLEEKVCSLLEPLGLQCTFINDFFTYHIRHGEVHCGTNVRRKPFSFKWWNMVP
# measurementDescription: PAD1-4 inhibition by competitive ABPP, late-stage follow-up, orthogonal assay for PAD4 inhibitor project, biochemical, fluorescence, gel-based ABPP, HTS hits (AID 588487)
# cond: recombinant PAD1-4, gel-based ABPP, RFA probe fluorescence; PAD4; at 10 µM; hits give high values
Entries and their inhibition values follow.
Kindly provide the numeric value in % only, without the unit symbol.

CC(=O)N(Cc1cc(=O)[nH]c2ccccc12)c1cccc(C)c1: -7

State its inhibition: COc1cccc(/C=C2/CN(C)CC3=C2OC(N)=C(C#N)C3c2cccc(OC)c2)c1 (stereo not given)
-5

Provide only the value of recorded inhibition for `COC(=O)c1cc(C)nc(Sc2ccccc2N)n1`
-61

For the molecule O=C(NCC1CCCO1)c1cc2c([nH]c3ccccc32)c(-c2ccc(F)cc2)n1 (stereo not given) , report inhibition.
78

Note inhibition for the molecule shown: `Cc1ccc(C2=NN=C(NC(=O)CSc3nncn3C)SC2)cc1`
26

Give inhibition for the following molecule: `O=C1CC(c2cccnc2)=NN1c1ccccc1`
4

Please give measured inhibition of the following entry: `CCC(=O)Oc1ccc(C(=O)Nc2cccc(C(=O)NC(C)(C)C)c2)cc1`
4

For the molecule `CC(=O)C1=C(c2ccccc2)N(C(C)=O)n2c(C)nnc2S1` , give its measured inhibition value.
9
